# Method: Extensive tissue distribution study in CT26 tumor-bearing mice
# Assay type: in vivo, Balb/c mice
# Assay Conditions: Balb/c, mouse, lung; 75 mg/kg PO; Lungs; read-out: Cmax
Assay Metric: Cmax
# output: numeric value plus its unit

For the compound C[C@@H]1COCCN1c1cc(C2([S@](C)(=N)=O)CC2)nc(-c2cc[nH]c3nccc2-3)n1 , give its measured Cmax value.
17400 ng/mL

----------
# Method: in vivo
# Assay Conditions: Balb/c, mouse, po, 75 mg/kg
Assay Metric: CL renal (L/h/kg)
Field: numeric (L/h/kg). Do not append units.

For the compound C[C@@H]1COCCN1c1cc(C2([S@](C)(=N)=O)CC2)nc(-c2cc[nH]c3nccc2-3)n1 [AZD6738] , give its measured CL renal value.
0.0684
